# system-under-test: Histone deacetylase 7 (Homo sapiens, UniProt Q8WUI4)
# Sequence (Q8WUI4 whole entry): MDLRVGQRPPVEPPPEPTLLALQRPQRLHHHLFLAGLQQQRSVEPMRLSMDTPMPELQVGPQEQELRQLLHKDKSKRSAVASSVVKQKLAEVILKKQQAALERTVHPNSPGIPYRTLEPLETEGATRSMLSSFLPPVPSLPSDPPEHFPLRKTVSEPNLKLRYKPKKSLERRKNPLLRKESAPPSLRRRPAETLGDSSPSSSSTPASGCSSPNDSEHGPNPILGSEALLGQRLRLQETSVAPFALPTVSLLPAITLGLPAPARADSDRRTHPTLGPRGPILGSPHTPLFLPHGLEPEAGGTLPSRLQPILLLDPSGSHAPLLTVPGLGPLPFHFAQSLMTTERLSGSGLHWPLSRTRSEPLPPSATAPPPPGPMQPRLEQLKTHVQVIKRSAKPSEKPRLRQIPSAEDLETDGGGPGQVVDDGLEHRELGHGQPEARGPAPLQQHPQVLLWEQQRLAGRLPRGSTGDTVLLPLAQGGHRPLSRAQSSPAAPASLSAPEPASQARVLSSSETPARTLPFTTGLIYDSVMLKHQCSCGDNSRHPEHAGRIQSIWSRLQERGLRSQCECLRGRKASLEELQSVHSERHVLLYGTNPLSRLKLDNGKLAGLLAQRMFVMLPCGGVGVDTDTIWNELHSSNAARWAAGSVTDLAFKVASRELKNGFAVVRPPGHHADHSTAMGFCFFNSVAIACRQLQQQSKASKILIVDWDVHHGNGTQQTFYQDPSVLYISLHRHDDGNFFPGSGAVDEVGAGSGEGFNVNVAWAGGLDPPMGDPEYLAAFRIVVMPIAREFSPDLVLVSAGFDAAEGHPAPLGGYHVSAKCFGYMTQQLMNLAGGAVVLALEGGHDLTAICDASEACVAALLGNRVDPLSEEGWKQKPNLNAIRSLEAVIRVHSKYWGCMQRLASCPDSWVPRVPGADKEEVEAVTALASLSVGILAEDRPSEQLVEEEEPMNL
pIC50: −log10 of the molar value.
readout-type: pIC50

q: Checklist item: pIC50 tested on Histone deacetylase 7 (Homo sapiens, UniProt Q8WUI4), entry CC#CCOc1ccc(C(=O)N[C@H](C(=O)NO)C(C)(C)N)cc1 , value?
a: < 4.52

* * *

# test-protocol: Protein binding in rat plasma
# Format: ADME, cell-free
# assay-context: read-out: PPB (converted)
readout-type: fraction unbound
Lab note: record just the number, no unit beside it.

chemical-smiles	fraction unbound
CC#CCOc1ccc(C(=O)N[C@H](C(=O)NO)C(C)(C)N)cc1	0.779

With those in mind, consider the next molecule.
q: Report fraction unbound for C[C@@H](N)[C@H](NC(=O)c1ccc(C#Cc2ccccc2)cc1)C(=O)NO please.
a: 0.072
